# System: CD2F1 mice, L1210 leukemia ip, survival T/C
# TEST: NCI In Vivo Anticancer Drug Screen. Data for tumor model L1210 Leukemia (intraperitoneal) in CD2F1 (CDF1) mice
# ASSAY CONDITIONS: endpoint: mean survival time; dose: 12.5 mg/kg/injection; schedule: Q04DX003 (ip); vehicle: saline with Tween-80; higher = longer survival
Toxic doses and inconclusive results are not listed.
Entries annotated with measured T/C

O=C(O)/C=C/C(=O)c1ccccc1 | 104 % of control
NC1CC[N-]CC1.NC1CC[N-]CC1.NC1CC[N-]CC1.NC1CC[N-]CC1.[Cl][Rh][Cl] | 101 % of control
O=[N+]([O-])c1c[c]([Hg][Cl])c(O)[c]([Hg][Cl])c1 | 93 % of control
N#CC[CH2][Sn]([I])([c]1ccccc1)[c]1ccccc1 | 97 % of control
COc1cc(C=Nc2cc(Cl)ccc2-n2ccnc2C)ccc1N(CCCl)CCCl | 117 % of control

Specify the recorded T/C for O=C1CC2CCC1C2Cl (stereo not drawn) , system: CD2F1 mice, L1210 leukemia ip, survival T/C.
113 % of control

Determine reported T/C for "Clc1[nH]nc2ccccc12" ; test system: CD2F1 mice, L1210 leukemia ip, survival T/C.
98 % of control

Consider the compound CCC12NC(=O)NC1(C)NC(=O)N2 (stereo not drawn) tested on CD2F1 mice, L1210 leukemia ip, survival T/C; state its T/C.
106 % of control

----------
Measured T/C by item
# System: CD2F1 mice, L1210 leukemia ip, survival T/C
# TEST: NCI In Vivo Anticancer Drug Screen. Data for tumor model L1210 Leukemia (intraperitoneal) in CD2F1 (CDF1) mice
# ASSAY CONDITIONS: endpoint: mean survival time; dose: 25.0 mg/kg/injection; schedule: Q01DX005 (ip); vehicle: water; higher = longer survival
Toxic doses and inconclusive results are not listed.

# annotated cases, reported T/C shown
Cn1c(=O)c2c(ncn2CCCNCC(O)c2ccc(O)c(O)c2)n(C)c1=O (stereo not given) | 98 % of control
CCOC(=O)Nc1cc(Cl)c2nnn(C3OC(CO)C(O)C3O)c2n1 (stereo not given) | 94 % of control
CCSC(CC(O)C(O)C(O)CO)n1cnc2c(Cl)ncnc21 (stereo not given) | 105 % of control

Quickly give me recorded T/C for CC1(C)CC(NC(=O)CSc2ncnc3c2ncn3C2OC(CO)C(O)C2O)CC(C)(C)N1O (stereo not given)
94 % of control

In one line, give reported T/C of the entry CCSC(C(O)C(O)C(O)C(O)CO)n1cnc2c(=S)nc[nH]c21 (stereo not given) .
94 % of control

Fill in T/C for record NC(=O)c1csc(C2OC(CO)C(O)C2O)n1 (stereo not given)
120 % of control

Look up T/C of NC(=O)c1nc(C2OC(CO)C(O)C2O)no1 (stereo not given) and report it.
98 % of control

Please report T/C for the following molecule: Nc1cc(=S)c2ncn(C3OC(CO)C(O)C3O)c2[nH]1 (stereo not given)
89 % of control

Supply reported T/C belonging to this molecule: O=c1[nH]c(=O)n(C2CC(O)C(CO)O2)cc1F (stereo not given)
108 % of control

Indicate its recorded T/C; the molecule in question is CSc1nc(N)c2c(C(N)=O)cc(=O)n(C3OC(CO)C(O)C3O)c2n1 (stereo not given)
96 % of control

----------
The entries below are paired with their reported T/C.
# Test system: CD2F1 mice, L1210 leukemia ip, survival T/C
# TEST: NCI In Vivo Anticancer Drug Screen. Data for tumor model L1210 Leukemia (intraperitoneal) in CD2F1 (CDF1) mice
# ASSAY CONDITIONS: endpoint: mean survival time; dose: 5.0 mg/kg/injection; schedule: Q04DX003 (ip); vehicle: saline; higher = longer survival
Inconclusive results and toxic doses are left out.

Worked cases, T/C given:
CC1(C)N=C(N)N=C(N)N1c1cccc(Cl)c1Cl | 105 % of control
O=C(C=C(C(F)(F)Cl)C(F)(F)Cl)c1cccs1 | 98 % of control
CCC(C)C#N (centres undefined) | 97 % of control

Read the next record carefully.
Entry "[Cl][Sn]([c]1ccccc1)([c]1ccccc1)[c]1ccccc1" needs its T/C filled in; supply it.
100 % of control

----------
Listing: T/C of selected molecules
# System: CD2F1 mice, L1210 leukemia ip, survival T/C
# TEST: NCI In Vivo Anticancer Drug Screen. Data for tumor model L1210 Leukemia (intraperitoneal) in CD2F1 (CDF1) mice
# ASSAY CONDITIONS: endpoint: mean survival time; dose: 400.0 mg/kg/injection; schedule: Q04DX002 (ip); vehicle: saline with Tween-80; higher = longer survival
Toxic doses and inconclusive results are not listed.

For CD2F1 mice, L1210 leukemia ip, survival T/C, give the measured T/C of the entry "Cc1cc(S(=O)(=O)F)cc(Cl)c1SC(=O)N(C)C"
91 % of control

Give reported T/C for "COc1ccc(COC(=O)Nc2ccccc2[N+](=O)[O-])cc1" (CD2F1 mice, L1210 leukemia ip, survival T/C)
91 % of control

----------
# Test system: CD2F1 mice, L1210 leukemia ip, survival T/C
# TEST: NCI In Vivo Anticancer Drug Screen. Data for tumor model L1210 Leukemia (intraperitoneal) in CD2F1 (CDF1) mice
# ASSAY CONDITIONS: endpoint: mean survival time; dose: 100.0 mg/kg/injection; schedule: Q01DX001 (ip); vehicle: saline; higher = longer survival
Inconclusive results and toxic doses are left out.
MEASUREMENT NAME: T/C

Examples from the recorded data:
CC(=O)OCC1OC(OC2C(COC(C)=O)OC(OC(C)=O)C(OC(C)=O)C2OC(C)=O)C(OC(C)=O)C(OC(C)=O)C1OC(C)=O (stereo not given) | 100 % of control
CCC(C)CCCOC(=O)c1c(Cl)c(Cl)c(Cl)c(Cl)c1C(=O)O (stereo not given) | 106 % of control
Cc1nnn2ccccc12 | 95 % of control
Cc1cc2cc3c(=O)[nH]c(=O)nc-3n(CC(O)C(O)C(O)CO)c2cc1C (stereo not given) | 103 % of control
COc1ccc(CCNC2c3ccccc3C=Cc3ccccc32)cc1OC | 91 % of control

Moving on to the next molecule.
Answer briefly: T/C recorded on CD2F1 mice, L1210 leukemia ip, survival T/C for "O=S(=O)(Cl)c1ccc2cc3ccccc3cc2c1"
94 % of control

----------
# System: CD2F1 mice, L1210 leukemia ip, survival T/C
# TEST: NCI In Vivo Anticancer Drug Screen. Data for tumor model L1210 Leukemia (intraperitoneal) in CD2F1 (CDF1) mice
# ASSAY CONDITIONS: endpoint: mean survival time; dose: 100.0 mg/kg/injection; schedule: Q01DX001 (ip); vehicle: saline; higher = longer survival
Inconclusive results and toxic doses are left out.
T/C for assorted molecules

CCOC(OCC)c1cc(=O)[nH]c(NC(C)=O)n1 | 95 % of control
CCCN(CCC)S(=O)(=O)c1ccc(NC(=O)OC2CCCCCCC2)cc1 | 92 % of control
OCC1OC(n2cnc3c(OC4CCCC4)ncnc32)C(O)C1O (stereo not drawn) | 101 % of control
CC(=O)CCCN(CCO)CCO | 103 % of control
C=C(Br)C(=O)O | 93 % of control

Report measured T/C on CD2F1 mice, L1210 leukemia ip, survival T/C; entry: O=CC(O)C(O)C(O)C(O)C(O)CO (stereo not drawn)
94 % of control

Report measured T/C on CD2F1 mice, L1210 leukemia ip, survival T/C; entry: CCCC(O)C(N)CC (stereo not drawn)
98 % of control

Enter T/C (test system CD2F1 mice, L1210 leukemia ip, survival T/C) for "O=C(O)c1c(O)cccc1O"
98 % of control

----------
# Test system: CD2F1 mice, L1210 leukemia ip, survival T/C
# TEST: NCI In Vivo Anticancer Drug Screen. Data for tumor model L1210 Leukemia (intraperitoneal) in CD2F1 (CDF1) mice
# ASSAY CONDITIONS: endpoint: mean survival time; dose: 100.0 mg/kg/injection; schedule: Q04DX002 (ip); vehicle: Klucel (hydroxypropylcellulose) (HPC); higher = longer survival
Toxic doses and inconclusive results are not listed.
Each entry below carries its reported T/C.

Example results:
CC(=O)Nc1ncc(CN2CCCCC2)s1 | 100 % of control
Sc1c(Cl)c(Cl)c(Cl)c(Cl)c1Cl | 96 % of control
Cc1ccc([N+](=O)[O-])cc1NC(=O)Oc1ccc2c(C)cc(=O)oc2c1 | 92 % of control
O=C1c2ccccc2C(=O)c2c1cccc2N1CCOCC1 | 102 % of control
Nc1cccc(/C=C/c2cccc([N+](=O)[O-])c2)c1 | 98 % of control

// Input: "Nc1nc(N)c2nc(-c3ccccc3Cl)c(-c3ccccc3Cl)nc2n1" . Output its T/C only.
95 % of control
